- Tested on: M. xenopi (ATCC19250)
Could you please report measured MIC for the items listed next?
Mention the unit after the number when you answer.

// fetch MIC; item: `CO[C@H]1/C=C/O[C@@]2(C)Oc3c(C)c(O)c4c(c3C2=O)C2=NC3(CCN(CC(C)C)CC3)NC2=C(NC(=O)/C(C)=C\C=C\[C@H](C)[C@H](O)[C@@H](C)[C@@H](O)[C@@H](C)[C@H](OC(=O)Cn2cc(C3CCCCC3)nn2)[C@@H]1C)C4=O` ; system: M. xenopi (ATCC19250)
0.03 µg/mL

// fetch MIC; item: `CO[C@H]1/C=C/O[C@@]2(C)Oc3c(C)c(O)c4c(c3C2=O)C2=NC3(CCN(CC(C)C)CC3)NC2=C(NC(=O)/C(C)=C\C=C\[C@H](C)[C@H](O)[C@@H](C)[C@@H](O)[C@@H](C)[C@H](OC(=O)Cn2cc(-c3ccccn3)nn2)[C@@H]1C)C4=O` ; system: M. xenopi (ATCC19250)
0.06 µg/mL

// fetch MIC; item: `COc1ccc2cc(-c3cn(CC(=O)O[C@H]4[C@H](C)[C@H](O)[C@H](C)[C@@H](O)[C@@H](C)/C=C/C=C(/C)C(=O)NC5=C6NC7(CCN(CC(C)C)CC7)N=C6c6c(c(O)c(C)c7c6C(=O)[C@@](C)(O/C=C/[C@H](OC)[C@H]4C)O7)C5=O)nn3)ccc2c1` ; system: M. xenopi (ATCC19250)
0.03 µg/mL

// fetch MIC; item: `CO[C@H]1/C=C/O[C@@]2(C)Oc3c(C)c(O)c4c(c3C2=O)C2=NC3(CCN(CC(C)C)CC3)NC2=C(NC(=O)/C(C)=C\C=C\[C@H](C)[C@H](O)[C@@H](C)[C@@H](O)[C@@H](C)[C@H](OC(=O)Cn2cc(-c3ccccc3)nn2)[C@@H]1C)C4=O` ; system: M. xenopi (ATCC19250)
0.016 µg/mL

// fetch MIC; item: `COc1ccc(-c2cn(CC(=O)O[C@H]3[C@H](C)[C@H](O)[C@H](C)[C@@H](O)[C@@H](C)/C=C/C=C(/C)C(=O)NC4=C5NC6(CCN(CC(C)C)CC6)N=C5c5c(c(O)c(C)c6c5C(=O)[C@@](C)(O/C=C/[C@H](OC)[C@H]3C)O6)C4=O)nn2)cc1` ; system: M. xenopi (ATCC19250)
0.125 µg/mL
